Provenance of the data: patent US20240208992A1

# assay system: human F508del-CFTR (Homo sapiens, UniProt P13569, DEL508-508)
# Sequence (P13569 with tags, fused parts or gaps DEL508-508): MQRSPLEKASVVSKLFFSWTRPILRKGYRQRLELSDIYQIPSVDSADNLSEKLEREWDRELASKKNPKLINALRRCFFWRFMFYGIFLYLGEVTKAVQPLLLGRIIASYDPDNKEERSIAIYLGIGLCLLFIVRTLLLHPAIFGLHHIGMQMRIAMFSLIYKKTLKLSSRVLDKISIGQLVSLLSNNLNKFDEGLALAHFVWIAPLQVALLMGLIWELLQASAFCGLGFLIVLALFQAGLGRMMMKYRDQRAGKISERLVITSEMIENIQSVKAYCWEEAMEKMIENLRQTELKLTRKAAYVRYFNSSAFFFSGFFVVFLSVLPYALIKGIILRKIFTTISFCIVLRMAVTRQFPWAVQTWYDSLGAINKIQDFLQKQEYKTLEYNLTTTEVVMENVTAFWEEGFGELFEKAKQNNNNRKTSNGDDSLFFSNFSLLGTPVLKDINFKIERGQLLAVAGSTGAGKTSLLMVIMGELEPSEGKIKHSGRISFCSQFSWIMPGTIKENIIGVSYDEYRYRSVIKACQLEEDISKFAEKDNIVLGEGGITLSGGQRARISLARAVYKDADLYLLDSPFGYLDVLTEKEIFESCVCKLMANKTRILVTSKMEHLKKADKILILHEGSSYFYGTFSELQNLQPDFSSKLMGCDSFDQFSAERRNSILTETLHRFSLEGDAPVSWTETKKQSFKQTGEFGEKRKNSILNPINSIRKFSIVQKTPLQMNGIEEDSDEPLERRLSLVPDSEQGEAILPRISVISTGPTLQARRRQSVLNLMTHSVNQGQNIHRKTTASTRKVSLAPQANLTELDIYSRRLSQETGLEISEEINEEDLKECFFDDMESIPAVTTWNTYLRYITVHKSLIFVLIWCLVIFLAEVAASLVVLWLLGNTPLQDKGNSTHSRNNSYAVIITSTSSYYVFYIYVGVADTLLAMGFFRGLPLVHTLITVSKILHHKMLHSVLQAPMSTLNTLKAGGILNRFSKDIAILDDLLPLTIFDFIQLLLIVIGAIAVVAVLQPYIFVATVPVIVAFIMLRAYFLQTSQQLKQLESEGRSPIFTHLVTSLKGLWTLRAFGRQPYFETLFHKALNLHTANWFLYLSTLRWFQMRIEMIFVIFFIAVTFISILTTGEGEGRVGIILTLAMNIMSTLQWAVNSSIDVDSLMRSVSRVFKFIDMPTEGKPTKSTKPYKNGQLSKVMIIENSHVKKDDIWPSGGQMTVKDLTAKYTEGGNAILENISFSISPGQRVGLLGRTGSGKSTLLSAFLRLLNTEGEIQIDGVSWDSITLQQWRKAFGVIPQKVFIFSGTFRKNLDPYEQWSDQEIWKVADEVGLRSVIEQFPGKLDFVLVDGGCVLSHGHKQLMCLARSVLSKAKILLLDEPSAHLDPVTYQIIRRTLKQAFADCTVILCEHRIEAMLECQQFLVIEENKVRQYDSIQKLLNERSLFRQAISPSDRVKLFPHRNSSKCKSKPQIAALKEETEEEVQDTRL
# experiment notes: F508del-CFTR cell surface expression (corrector activity), DiscoveRx ß-galactosidase complementation chemiluminescence assay in recombinant U2OS cell line
# test conditions: EC50, F508del-CFTR cell surface expression, U2OS cell line, 16h compound incubation; geomean values
EC50 values for the compounds below.
readout label: EC50 (nM)

                               given_smiles  recorded_result
0  CC(C)C[C@H]1C(=O)N(CCC2CCCCC2)CC(=O)N[C@H](Cc2ccccc2)COc2cnccc2C(=O)N[C@H](C(=O)NCCc2ccc3c(c2)OCO3)CC(=O)N1C              266
1  Cc1oncc1CCNC(=O)[C@@H]1CC(=O)N(C)[C@@H](CC(C)C)C(=O)N2CCCC[C@@H]2C(=O)N[C@H](Cc2ccccc2)COc2cnc3ccccc3c2C(=O)N1              598
2  COc1cccc(CCNC(=O)[C@@H]2CC(=O)N(C)[C@@H](CC(C)C)C(=O)N3CCCC[C@H]3C(=O)N[C@H](Cc3ccccc3)COc3cnc4ccccc4c3C(=O)N2)c1              265
3  COc1nccc2c1C(=O)N[C@H](C(=O)NCCc1nc3c(s1)CCC3)CC(=O)N(C)[C@@H](CC(C)C)C(=O)N1CCCC[C@@H]1C(=O)N[C@H](Cc1ccccc1)CO2              334
4  Cc1cccc2c1C(=O)N[C@H](C(=O)NCCc1ccc3c(c1)OCO3)CC(=O)N(C)[C@@H](CC(C)C)C(=O)N(C)CC(=O)N[C@H](Cc1ccccc1)CO2              825

---

# assay system: human F508del-CFTR (Homo sapiens, UniProt P13569, DEL508-508)
# experiment notes: F508del-CFTR cell surface expression (corrector activity), DiscoveRx ß-galactosidase complementation chemiluminescence assay in recombinant U2OS cell line
# test conditions: U2OS, in relation to Emax of corrector lumacaftor (=100%); arithmetic mean values
Param threshold (300%) applies to Emax; output satisfied when value >= threshold, not satisfied when value < threshold.

molecule	label value
COc1cccc(CCNC(=O)[C@@H]2CC(=O)N(C)[C@@H](CC(C)C)C(=O)N(C)CC(=O)N[C@H](Cc3ccccc3)COc3ccc4c(c3C(=O)N2)OC(F)(F)O4)c1 [Example 409]	not satisfied
Cc1cc(CCNC(=O)[C@@H]2CC(=O)N(C)[C@@H](CC(C)C)C(=O)N(C)[C@H](Cc3cccc4ccccc34)C(=O)N[C@H](Cc3ccccc3)COc3cnc4ccccc4c3C(=O)N2)on1 [Example 698]	satisfied
COc1nccc2c1C(=O)N[C@H](C(=O)NCCc1cc(C3CC3)on1)CC(=O)N(C)[C@@H](CC(C)C)C(=O)N1CCCC[C@@H]1C(=O)N[C@H](Cc1ccccc1)CO2 [Example 512]	satisfied
COc1cccc(CCNC(=O)[C@@H]2CC(=O)N(C)[C@@H](CC(C)C)C(=O)N(C)CC(=O)N[C@H](Cc3ccccc3)COc3ccc4ncc(F)cc4c3C(=O)N2)c1 [Example 507]	satisfied

---

# assay system: human F508del-CFTR (Homo sapiens, UniProt P13569, DEL508-508)
# experiment notes: F508del-CFTR cell surface expression (corrector activity), DiscoveRx ß-galactosidase complementation chemiluminescence assay in recombinant U2OS cell line;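 note: U2OS cells co-expressing ProLink-tagged F508del-CFTR and a membrane-anchored enzyme acceptor, where more surface CFTR restores β-galactosidase activity measured by chemiluminescence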
# test conditions: U2OS, in relation to the Emax of the corrector lumacaftor (=100%); U2OS cell line, 16h compound incubation; arithmetic mean values
Reported Emax values are given for each entry in this list.
readout label: Emax (%)

compound	readout label	uom	recorded result
CC(C)C[C@H]1C(=O)N(C)C2(CC2)C(=O)N[C@H](Cc2ccccc2)COc2cnc3ccc(F)cc3c2C(=O)N[C@H](C(=O)NCCc2cccc(-c3cnccn3)c2)CC(=O)N1C	Emax	%	150
CC(C)C[C@H]1C(=O)N2CCOC[C@@H]2C(=O)N[C@H](Cc2ccccc2)COc2cnc3ccccc3c2C(=O)N[C@H](C(=O)NCCc2ccc3c(c2)OCCO3)CC(=O)N1C	Emax	%	404
CN1C(=O)C[C@@H](C(=O)NCCc2ccc3c(c2)OCO3)NC(=O)c2c(ccc3ccccc23)OC[C@@H](Cc2ccccc2)NC(=O)CN(CCC2CCCCC2)C(=O)[C@@H]1CC1CCCCC1 (racemic)	Emax	%	210
